- test-description: blockers of RIG-like receptor reporter activation – cell-based, Sendai virus stimulus, luciferase, 10K MLSCN set, TLR/RLR signaling modifier project, primary screen (AID 602276);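 further: firefly luciferase from ISG56 promoter only with Renilla not read in this screen; 0% = Sendai virus plus DMSO and 100% = medium plus DMSO without virus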
- run-parameters: HEK293 RL24 IRF3 luciferase reporter, at 10 µM, hits give high values
property-measured: inhibition (%)
Quick note: give the figure in %, leave out the unit.

O=C(c1ccc(Br)o1)N(c1ccc(Br)cc1)C1C=CS(=O)(=O)C1 (centres undefined)    -8.65
Cn1cnc2cc(NC(=O)c3ccc(Cl)cc3)ccc21    -39.3
COc1ccc(-n2ncc3c(N4CCC(C)CC4)ncnc32)cc1    9.66

Task: Quick one: inhibition for Cc1ccc(S(=O)(=O)N2CCC(C(=O)N3CCC[C@H]3C(=O)NCc3ccccc3)CC2)cc1 ?
Output: 13.5

Task: Quick one: inhibition for O=C1C(c2ccncc2)=C(O)c2ccccc21 ?
Output: 4.51

Task: Quick one: inhibition for CN(C)c1ccc(/C=C/c2ccncc2)cc1 ?
Output: -62.5

Data provenance is PubChem BioAssay.
